Tested on: cervical epithelioid carcinoma (HeLa)
Experiment: MTT cytotoxicity assay, HeLa
Type: cell-based, human
Details: 72 h of incubation
Property Name: IC50

>>> result("CCN(CC)C1=[S+][Au-][P+](c2ccccc2)(c2ccccc2)C[P+](c2ccccc2)(c2ccccc2)[Au-][S]1.O=S(=O)(O)C(F)(F)F [Compound 4, [Au2-dppm-dedt] (OTf)]")
"630 nM"

GET IC50 where system = cervical epithelioid carcinoma (HeLa) and item = CCN(CC)C1=[S+][Au-][P+](C2CCCCC2)(C2CCCCC2)C[P+](C2CCCCC2)(C2CCCCC2)[Au-][S]1.O=S(=O)(O)C(F)(F)F [Compound 3, [Au2-dcpm-dedt] (OTf)]
< 390 nM
